Recorded MIC values (Proteus mirabilis ATCC 25933) are given below.

{"compound": "Cc1c(N)nc(SCC2=C(C(=O)[O-])N3C(=O)C(NC(=O)/C(=N\\O[C@H](C)C(=O)O)c4csc(N)n4)[C@H]3SC2)[n+](N)c1N (stereo partly drawn) [I-R-7]", "system-tested": "Proteus mirabilis ATCC 25933", "MIC": "0.031 µg/mL"}
{"compound": "C[C@H](O/N=C(\\C(=O)NC1C(=O)N2C(C(=O)[O-])=C(CSc3nc(N)cc(N)[n+]3C)CS[C@H]12)c1csc(N)n1)C(=O)O (stereo partly drawn) [I-S-2]", "system-tested": "Proteus mirabilis ATCC 25933", "MIC": "0.016 µg/mL"}
{"compound": "Cc1c(N)nc(SCC2=C(C(=O)[O-])N3C(=O)C(NC(=O)/C(=N\\O[C@@H](C)C(=O)O)c4csc(N)n4)C3SC2)[n+](C)c1N (stereo partly drawn) [I-S-6]", "system-tested": "Proteus mirabilis ATCC 25933", "MIC": "0.031 µg/mL"}

====

Observed MIC for Serratia marcescens ATCC 27117, reported per entry below.
observed-property: MIC (µg/mL)

{"compound": "CC[n+]1c(N)cc(N)nc1SCC1=C(C(=O)[O-])N2C(=O)C(NC(=O)/C(=N\\O[C@H](C)C(=O)O)c3csc(N)n3)[C@H]2SC1 (stereo partly drawn)", "readout-value": 0.063}
{"compound": "CC(C)(O/N=C(\\C(=O)N[C@@H]1C(=O)N2C(C(=O)[O-])=C(C[n+]3ccccc3)CS[C@H]12)c1csc(N)n1)C(=O)O [CTZ, Ceftazidime, reference compound]", "readout-value": 0.25}
{"compound": "C[C@@H](O/N=C(\\C(=O)NC1C(=O)N2C(C(=O)[O-])=C(CSc3nc(N)cc(N)[n+]3-c3ccccc3)CSC12)c1csc(N)n1)C(=O)O (stereo partly drawn)", "readout-value": 0.5}
{"compound": "CC[n+]1c(N)cc(N)nc1SCC1=C(C(=O)[O-])N2C(=O)C(NC(=O)/C(=N\\O[C@@H](C)C(=O)O)c3csc(N)n3)[C@H]2SC1 (stereo partly drawn)", "readout-value": 0.063}
{"compound": "Cc1c(N)nc(SCC2=C(C(=O)[O-])N3C(=O)C(NC(=O)/C(=N\\O[C@@H](C)C(=O)O)c4csc(N)n4)C3SC2)[n+](C)c1N (stereo partly drawn)", "readout-value": 0.13}
{"compound": "C[C@@H](O/N=C(\\C(=O)NC1C(=O)N2C(C(=O)[O-])=C(CSc3nc(N)cc(N)[n+]3C)CS[C@H]12)c1csc(N)n1)C(=O)O (stereo partly drawn)", "readout-value": 0.063}

====

concentration at 40 min overview
run-description: in vivo absorbency test (plasma concentration, pharmacokinetic parameters)
Design: species or system SD rats (male)
recorded-conditions: rat, plasma; 40 min; rats, iv, 20 mg/kg; read-out: Plasma Conc.
Protocol: In addition to the in vitro tests described above, in vivo absorbency tests for the two selected compounds of formulas (I-S-1) and (I-R-1), along with Ceftadizime, were carried out by administering intravenously, in a dose of 20 mg/kg, each of these two compounds into SD rats (male) weighing 220 to 340 g; […], which were analyzed by employing the bio-assay or agar well method. About 10 to 15 rats were used for each of the compounds. Notes: (1) Two-Compartment Model […]

{"molecule": "C[C@@H](O/N=C(\\C(=O)NC1C(=O)N2C(C(=O)[O-])=C(CSc3nc(N)cc(N)[n+]3N)CS[C@H]12)c1csc(N)n1)C(=O)O (some centres unmarked)", "concentration at 40 min": "17700 ng/mL"}
{"molecule": "C[C@H](O/N=C(\\C(=O)NC1C(=O)N2C(C(=O)[O-])=C(CSc3nc(N)cc(N)[n+]3N)CS[C@H]12)c1csc(N)n1)C(=O)O (some centres unmarked)", "concentration at 40 min": "19600 ng/mL"}

====

run-description: in vivo absorbency test (plasma concentration, pharmacokinetic parameters)
Design: species or system SD rats (male)
recorded-conditions: rat, plasma; 180 min; rats, iv, 20 mg/kg; read-out: Plasma Conc.

{"compound": "C[C@H](O/N=C(\\C(=O)NC1C(=O)N2C(C(=O)[O-])=C(CSc3nc(N)cc(N)[n+]3N)CS[C@H]12)c1csc(N)n1)C(=O)O (some centres unmarked) [I-S-1]", "concentration at 3 h (ng/mL)": 1500}
{"compound": "C[C@@H](O/N=C(\\C(=O)NC1C(=O)N2C(C(=O)[O-])=C(CSc3nc(N)cc(N)[n+]3N)CS[C@H]12)c1csc(N)n1)C(=O)O (some centres unmarked) [I-R-1]", "concentration at 3 h (ng/mL)": 700}

====

We begin with a simple list: items and their reported concentration at 1 h.
run-description: in vivo absorbency test (plasma concentration, pharmacokinetic parameters)
Parameters: species or system SD rats (male)
recorded-conditions: rat, plasma; 60 min; rats, iv, 20 mg/kg; read-out: Plasma Conc.

{"compound": "C[C@@H](O/N=C(\\C(=O)NC1C(=O)N2C(C(=O)[O-])=C(CSc3nc(N)cc(N)[n+]3N)CS[C@H]12)c1csc(N)n1)C(=O)O (some centres unmarked)", "concentration at 1 h": "10100 ng/mL"}
{"compound": "C[C@H](O/N=C(\\C(=O)NC1C(=O)N2C(C(=O)[O-])=C(CSc3nc(N)cc(N)[n+]3N)CS[C@H]12)c1csc(N)n1)C(=O)O (some centres unmarked)", "concentration at 1 h": "11200 ng/mL"}

====

System: Shigella sonnei ATCC 11060
observed-property: MIC

{"compound": "C[C@H](O/N=C(\\C(=O)NC1C(=O)N2C(C(=O)[O-])=C(CSc3nc(N)cc(N)[n+]3-c3ccccc3)CS[C@H]12)c1csc(N)n1)C(=O)O (stereo partly drawn)", "system-tested": "Shigella sonnei ATCC 11060", "readout-value": "0.25 µg/mL"}
{"compound": "CC[n+]1c(N)cc(N)nc1SCC1=C(C(=O)[O-])N2C(=O)C(NC(=O)/C(=N\\O[C@@H](C)C(=O)O)c3csc(N)n3)[C@H]2SC1 (stereo partly drawn)", "system-tested": "Shigella sonnei ATCC 11060", "readout-value": "0.063 µg/mL"}
{"compound": "CC(C)(O/N=C(\\C(=O)N[C@@H]1C(=O)N2C(C(=O)[O-])=C(C[n+]3ccccc3)CS[C@H]12)c1csc(N)n1)C(=O)O [CTZ, Ceftazidime, reference compound]", "system-tested": "Shigella sonnei ATCC 11060", "readout-value": "0.13 µg/mL"}
{"compound": "C[C@@H](O/N=C(\\C(=O)NC1C(=O)N2C(C(=O)[O-])=C(CSc3nc(N)cc(N)[n+]3-c3ccccc3)CSC12)c1csc(N)n1)C(=O)O (stereo partly drawn)", "system-tested": "Shigella sonnei ATCC 11060", "readout-value": "0.25 µg/mL"}
{"compound": "C[C@@H](O/N=C(\\C(=O)NC1C(=O)N2C(C(=O)[O-])=C(CSc3nc(N)cc(N)[n+]3C)CS[C@H]12)c1csc(N)n1)C(=O)O (stereo partly drawn)", "system-tested": "Shigella sonnei ATCC 11060", "readout-value": "0.031 µg/mL"}
{"compound": "Cc1c(N)nc(SCC2=C(C(=O)[O-])N3C(=O)C(NC(=O)/C(=N\\O[C@@H](C)C(=O)O)c4csc(N)n4)[C@H]3SC2)[n+](N)c1N (stereo partly drawn)", "system-tested": "Shigella sonnei ATCC 11060", "readout-value": "0.031 µg/mL"}

====

Recorded MIC values (Shigella sonnei ATCC 11060) are given below.

{"molecule": "CC[n+]1c(N)cc(N)nc1SCC1=C(C(=O)[O-])N2C(=O)C(NC(=O)/C(=N\\O[C@H](C)C(=O)O)c3csc(N)n3)[C@H]2SC1 (stereo partly drawn) [I-R-3]", "MIC / µg/mL": 0.031}
{"molecule": "Cc1c(N)nc(SCC2=C(C(=O)[O-])N3C(=O)C(NC(=O)/C(=N\\O[C@H](C)C(=O)O)c4csc(N)n4)[C@H]3SC2)[n+](C)c1N (stereo partly drawn) [I-R-6]", "MIC / µg/mL": 0.063}
{"molecule": "Cc1c(N)nc(SCC2=C(C(=O)[O-])N3C(=O)C(NC(=O)/C(=N\\O[C@H](C)C(=O)O)c4csc(N)n4)[C@H]3SC2)[n+](N)c1N (stereo partly drawn) [I-R-7]", "MIC / µg/mL": 0.063}
{"molecule": "C[C@@H](O/N=C(\\C(=O)NC1C(=O)N2C(C(=O)[O-])=C(CSc3nc(N)cc(N)[n+]3N)CS[C@H]12)c1csc(N)n1)C(=O)O (stereo partly drawn) [I-R-1]", "MIC / µg/mL": 0.016}
{"molecule": "CCC[n+]1c(N)cc(N)nc1SCC1=C(C(=O)[O-])N2C(=O)C(NC(=O)/C(=N\\O[C@H](C)C(=O)O)c3csc(N)n3)[C@H]2SC1 (stereo partly drawn) [I-R-4]", "MIC / µg/mL": 0.063}
{"molecule": "C[C@H](O/N=C(\\C(=O)NC1C(=O)N2C(C(=O)[O-])=C(CSc3nc(N)cc(N)[n+]3N)CS[C@H]12)c1csc(N)n1)C(=O)O (stereo partly drawn) [I-S-1]", "MIC / µg/mL": 0.031}
{"molecule": "C[C@H](O/N=C(\\C(=O)NC1C(=O)N2C(C(=O)[O-])=C(CSc3nc(N)cc(N)[n+]3C)CS[C@H]12)c1csc(N)n1)C(=O)O (stereo partly drawn) [I-S-2]", "MIC / µg/mL": 0.031}
{"molecule": "CCC[n+]1c(N)cc(N)nc1SCC1=C(C(=O)[O-])N2C(=O)C(NC(=O)/C(=N\\O[C@@H](C)C(=O)O)c3csc(N)n3)[C@H]2SC1 (stereo partly drawn) [I-S-4]", "MIC / µg/mL": 0.063}
{"molecule": "Cc1c(N)nc(SCC2=C(C(=O)[O-])N3C(=O)C(NC(=O)/C(=N\\O[C@@H](C)C(=O)O)c4csc(N)n4)C3SC2)[n+](C)c1N (stereo partly drawn) [I-S-6]", "MIC / µg/mL": 0.031}
